# assay_procedure: Cellular toxicity, same assay as Example B.4 without TAM (Example B.5)
# Format: cell-based
# conditions_used: mouse; Pfa1 cells without TAM; read-out: TC50 (the source's name)
experimental_endpoint: CC50

{"molecule": "c1ccc(C(CNC2=Nc3ccccc3NC23CCCCC3)c2ccccc2)cc1 [C-229]", "recorded_measurement": "2 to 5 µM"}
{"molecule": "FC(F)(F)c1cccc(CNC2=Nc3cc(Cl)c(Cl)cc3NC23CCCCCC3)c1 [C-260]", "recorded_measurement": "5 to 10 µM"}
{"molecule": "c1ccc(CNC2=Nc3ccccc3NC23CCCNCC3)cc1 (stereo not drawn) [N-212]", "recorded_measurement": "10 to 20 µM"}

----------
# System: human neuroblastoma cell line SH-SY5Y
# assay_procedure: Inhibition of BSO-induced non-apoptotic cell death (Example B.1)
# Assay type: cell-based
# conditions_used: SH-SY5Y cells, 50 μM BSO, 72 hours, read-out: SH-SY5Y/BSO IC50
Parameter: IC50. Scope: all listed entries.
experimental_endpoint: IC50

{"molecular_string": "Cc1cc2c(cc1C)NC1(CCOCC1)C(NCc1ccccc1)=N2", "tgt": "human neuroblastoma cell line SH-SY5Y", "experimental_endpoint": "IC50", "recorded_measurement": "< 200 nM"}
{"molecular_string": "Cc1cc2c(cc1C)NC1(CCNCC1)C(NCc1cccc(F)c1)=N2", "tgt": "human neuroblastoma cell line SH-SY5Y", "experimental_endpoint": "IC50", "recorded_measurement": "< 20 nM"}
{"molecular_string": "Clc1cccc(CNC2=Nc3ccccc3NC23CCOCC3)c1", "tgt": "human neuroblastoma cell line SH-SY5Y", "experimental_endpoint": "IC50", "recorded_measurement": "< 200 nM"}

----------
# assay_procedure: Cellular toxicity, same assay as Example B.4 without TAM (Example B.5)
# Format: cell-based
# conditions_used: mouse; Pfa1 cells without TAM; read-out: TC50 (the source's name)

{"molecule": "CC(C)(C)c1ccc(CNC2=Nc3ccccc3NC23CCNCC3)cc1", "CC50": "0.5 to 1 µM"}
{"molecule": "FC(F)(F)c1cccc(CNC2=Nc3cc(Cl)c(Cl)cc3NC23CCNCC3)c1", "CC50": "0.5 to 1 µM"}
{"molecule": "c1ccc(CCCCNC2=Nc3ccccc3NC23CCOCC3)cc1", "CC50": "10 to 20 µM"}
{"molecule": "Fc1cccc(F)c1CNC1=Nc2ccccc2NC12CCSCC2", "CC50": "50 to 100 µM"}
{"molecule": "c1ccc(CCNC2=Nc3ccccc3NC23CCSCC3)cc1", "CC50": "20 to 50 µM"}
{"molecule": "Cc1cc(C)cc(CNC2=Nc3ccccc3NC23CCCCC3)c1", "CC50": "10 to 20 µM"}
{"molecule": "Cc1cc2c(cc1C)NC1(CCCCCC1)C(NCc1ccccc1)=N2", "CC50": "10 to 20 µM"}
{"molecule": "Clc1ccccc1CNC1=Nc2ccccc2NC12CCCCCC2", "CC50": "20 to 50 µM"}
{"molecule": "Clc1ccccc1CNC1=Nc2ccccc2NC12CCNCC2", "CC50": "10 to 20 µM"}
{"molecule": "FC(F)(F)c1cccc(CNC2=Nc3ccccc3NC23CCSCC3)c1", "CC50": "50 to 100 µM"}
{"molecule": "COc1cccc(CNC2=Nc3ccccc3NC23CCCCC3)c1", "CC50": "20 to 50 µM"}
{"molecule": "CC1CC2(CCN1)Nc1ccccc1N=C2NCc1cccc(Cl)c1 (centres unmarked)", "CC50": "5 to 10 µM"}
{"molecule": "Fc1cc(Cl)ccc1CNC1=Nc2ccccc2NC12CCNCC2", "CC50": "20 to 50 µM"}
{"molecule": "Cc1cc2c(cc1C)NC1(CCNCC1)C(NCc1cccc(Cl)c1)=N2", "CC50": "1 to 2 µM"}
{"molecule": "Clc1cc2c(cc1Cl)NC1(CCSCC1)C(NCc1ccccc1)=N2", "CC50": "20 to 50 µM"}
{"molecule": "Cc1cc2c(cc1C)NC1(CCCCCC1)C(NCc1cccc(Cl)c1)=N2", "CC50": "5 to 10 µM"}
{"molecule": "c1ccc(CNC2=Nc3cc4c(cc3NC23CCCCC3)OCCO4)cc1", "CC50": "20 to 50 µM"}
{"molecule": "CN1CCC2(CC1)Nc1ccccc1N=C2NCc1cccc(Cl)c1", "CC50": "10 to 20 µM"}
{"molecule": "CCCCCCCC(=O)N1CCC2(CC1)Nc1ccccc1N=C2NCc1ccccc1", "CC50": "10 to 20 µM"}
{"molecule": "Clc1ccc(CNC2=Nc3ccccc3NC23CCOCC3)cc1", "CC50": "20 to 50 µM"}
{"molecule": "CN1CCC2(CC1)Nc1ccccc1N=C2NCc1ccccc1", "CC50": "20 to 50 µM"}
{"molecule": "CCCCCCCCN1CCC2(CC1)Nc1ccccc1N=C2NCc1ccccc1", "CC50": "5 to 10 µM"}
{"molecule": "Fc1cc2c(cc1F)NC1(CCNCC1)C(NCc1ccccc1)=N2", "CC50": "20 to 50 µM"}
